From: PubChem BioAssay (NCI)

Test system: ACHN renal
Test: NCI tumour cell line growth inhibition, 48 h
PROPERTY_MEASURED: TGI

Fill in reported TGI for this entry: "Cn1c(O)c(C=Nc2ccc(Cl)cc2Cl)c(=O)n(C)c1=O"
> 100 µM

Tell me TGI reported for NC(Cc1c[nH]c2cc(F)ccc12)C(=O)O (centres undefined)
> 2500 µM

Please give the documented TGI of "COCC(=O)NC/C=C/c1ccc2ncnc(Nc3ccc(Oc4ccc(C)nc4)c(C)c3)c2c1"
69.3 µM

Give TGI for "CCC(C)(C)NS(=O)(=O)c1ccccc1"
> 100 µM

Identify TGI associated with the molecule "COc1c2occc2cc2ccc(=O)oc12"
> 100 µM

Read off the recorded TGI for "CN(/N=C/c1ccccc1C(=O)O)C1=NCCCCN1"
> 100 µM

Report measured TGI; entry is "COc1ccc(-c2c3c(nc4[nH]c(=S)[nH]c(=S)c24)CCCC3)cc1OC"
> 100 µM

Tell me its TGI given CC(CCC(=O)O)c1ccc(Br)cc1 (centres undefined) as the entry.
> 100 µM

Hello, please tell me recorded TGI for this one: "OC[C@@H](O)[C@H](O)[C@@H](O)/C=N/Nc1ccc(Cl)nn1"
> 100 µM

Give recorded TGI. "COc1cc(C(=O)N(C(=S)OC23CC4CC(CC(C4)C2)C3)c2ccccc2)cc(OC)c1OC"
> 100 µM

For the molecule COc1ccc(NC(=O)CC(=O)N2N=C(C)C(N=Nc3ccc(C(=O)O)cc3)C2=O)cc1 (centres undefined) , give its reported TGI.
> 100 µM

Tell us which TGI value is on record for CCOC(=O)C(=O)C(/C(=N/N(C)C)C(=O)Nc1ccc(C)cc1C)c1nc2ccccc2[nH]c1=O (centres undefined)
> 100 µM

Quote TGI reported for "COc1ccc(NS(=O)(=O)c2ccc(N=C3C=C(Nc4ccc(S(=O)(=O)Nc5ccc(OC)nn5)cc4)C(=O)c4ccccc43)cc2)nn1" please.
37.8 µM

Quote TGI reported for "CC1=CC(=O)/C(=C/N2C(=O)CNC2=S)C(=O)O1" please.
> 100 µM

----------
So I've got a bunch of compounds here, and I need their TGI values.
System: OVCAR-8 ovarian
Test: NCI tumour cell line growth inhibition, 48 h

Please list TGI recorded for the compound CS(=O)(=O)CCC(N)P(=O)(O)O (centres undefined)
> 100 µM

Give the reported value of TGI for this record: "CN(C(=O)c1ccc(Cl)cc1)C(=S)N1CCN(c2ccccc2)CC1"
> 100 µM

State its TGI for this compound: "COC(=O)/C=C/c1cnc2c(c1)oc(=O)n2C"
> 100 µM

Supply recorded TGI for "COc1ccc2[nH]c3c(C)c4ncccc4c(C)c3c2c1" here.
> 10 µM

----------
Please provide measured TGI for the entries that follow.
Tested on: HOP-62 NSCLC
Experiment: NCI tumour cell line growth inhibition, 48 h

For HOP-62 NSCLC, give TGI of the listed molecule: "CC1(C)CN=C(Nc2ccc(F)c(Cl)c2)S1"
> 100 µM

Report TGI under test system HOP-62 NSCLC for "COc1ccc2c(c1)C=C(C(C)(C)C)NS2(=O)=O" .
> 100 µM

Find the measured TGI of [N-]=[N+]=NC1C2CC3CC(C2)CC1C3 (configuration not stated) with HOP-62 NSCLC as test system.
> 100 µM

Enter recorded TGI with HOP-62 NSCLC for "COC(=O)[C@H](Cc1cn(C)cn1)NC(=O)[C@@H](NC(=O)Nc1cc(C(F)(F)F)cc(C(F)(F)F)c1)C(C)(C)C" here.
> 10 µM

Provide the reported TGI (system: HOP-62 NSCLC) for "CC(=O)OCc1nnn2c1CCC2"
> 100 µM

Jot down TGI (HOP-62 NSCLC) of "CCCCCN(CCCCC)C(=O)[C@H](CCC(=O)OCc1ccccc1)NC(=O)c1cc2ccccc2[nH]1" .
> 100 µM

Print HOP-62 NSCLC TGI for Cc1nn(C(=O)c2ccncc2)c2c1C(c1ccc([N+](=O)[O-])cc1)SC(N)=N2 (configuration not stated) .
> 100 µM

Write down measured TGI (HOP-62 NSCLC) for this molecule. "COc1c2occc2cc2ccc(=O)oc12"
> 100 µM

Report the value of TGI obtained on HOP-62 NSCLC for CCC1(N)C(=O)OCc2c1cc1n(c2=O)Cc2cc3ccccc3nc2-1 (configuration not stated) .
> 100 µM

Please tell me the measured TGI for "CC1(C)Oc2ccccc2[N+]([O-])=C1c1ccccc1" ; system: HOP-62 NSCLC.
> 100 µM

Lab note: record TGI of COc1ccc2c(c1)OC1c3ccccc3OCC21 (configuration not stated) tested on HOP-62 NSCLC.
> 100 µM

Give TGI only, for "Nc1nc(CC2(O)CCCCC2)cc(-c2ccccc2)n1" , using HOP-62 NSCLC data.
> 80.6 µM
